test: Elimination half life in neutropenic ICR mouse infected with methicillin-sensitive Staphylococcus aureus ATCC 29213 at 50 mg/kg, sc by HPLC; format: ADME, organism-based; parameters: dose 50 mg/kg, route subcutaneous; details: in vivo, read-out: beta t1/2 (converted)
READOUT LABEL: half-life (h)
Answer format: numeric, h implied, no suffix.

GET /values?readout=half-life&item= CN(C)c1cc(NC(=O)CNC(C)(C)C)c(O)c2c1C[C@H]1C[C@H]3[C@H](N(C)C)C(O)=C(C(N)=O)C(=O)[C@@]3(O)C(O)=C1C2=O [TIGECYCLINE]
7.36

###

assay: Elimination half life in neutropenic ICR mouse infected with methicillin-sensitive Staphylococcus aureus ATCC 29213 at 25 mg/kg, sc by HPLC; format: ADME, organism-based; design: dose 25 mg/kg, route subcutaneous; conditions: in vivo, read-out: beta t1/2 (converted)
READOUT LABEL: half-life
State the value with its unit after it.

# input molecule: "CN(C)c1cc(NC(=O)CNC(C)(C)C)c(O)c2c1C[C@H]1C[C@H]3[C@H](N(C)C)C(O)=C(C(N)=O)C(=O)[C@@]3(O)C(O)=C1C2=O" ; wanted: its half-life
11.8 h

###

assay: Protein binding in methicillin-sensitive Staphylococcus aureus ATCC 29213-infected neutropenic ICR mouse serum at 12 µg/ml by HPLC; details: read-out: PB (converted)
READOUT LABEL: fraction unbound
Just the number, please, no unit after it.

Name the reported fraction unbound value associated with the molecule "CN(C)c1cc(NC(=O)CNC(C)(C)C)c(O)c2c1C[C@H]1C[C@H]3[C@H](N(C)C)C(O)=C(C(N)=O)C(=O)[C@@]3(O)C(O)=C1C2=O"
0.08

###

test: Tmax in neutropenic ICR mouse infected with Staphylococcus aureus ATCC 29213 at 6.25 mg/kg, sc by HPLC; type: ADME, organism-based; design: dose 6.25 mg/kg, route subcutaneous; settings: in vivo
READOUT LABEL: Tmax (min)
Kindly answer with a numeric value in min, unit omitted.

Report Tmax for "CN(C)c1cc(NC(=O)CNC(C)(C)C)c(O)c2c1C[C@H]1C[C@H]3[C@H](N(C)C)C(O)=C(C(N)=O)C(=O)[C@@]3(O)C(O)=C1C2=O" please.
4.8

###

experiment: Protein binding in methicillin-sensitive Staphylococcus aureus ATCC 29213-infected neutropenic ICR mouse serum at 50 mg/kg, sc by HPLC; assay type: ADME, organism-based; design: dose 50 mg/kg, route subcutaneous; conditions: read-out: PB (converted)
READOUT LABEL: fraction unbound
Keep the answer to the number alone.

Fill in: fraction unbound of "CN(C)c1cc(NC(=O)CNC(C)(C)C)c(O)c2c1C[C@H]1C[C@H]3[C@H](N(C)C)C(O)=C(C(N)=O)C(=O)[C@@]3(O)C(O)=C1C2=O" is ___
0.071

###

assay: Elimination half life in neutropenic ICR mouse infected with methicillin-sensitive Staphylococcus aureus ATCC 29213 at 12.5 mg/kg, sc by HPLC; assay type: ADME, organism-based; set-up: dose 12.5 mg/kg, route subcutaneous; details: in vivo, read-out: beta t1/2 (converted)
READOUT LABEL: half-life (h)
Give your result in h as a bare value.

Could you share which half-life value was measured for "CN(C)c1cc(NC(=O)CNC(C)(C)C)c(O)c2c1C[C@H]1C[C@H]3[C@H](N(C)C)C(O)=C(C(N)=O)C(=O)[C@@]3(O)C(O)=C1C2=O" ?
10.1
